# Lookup of reported IC50 keyed by entry
# TARGET: IdeR (Mycobacterium tuberculosis)
# Sequence (P9WMH1 whole entry, looked up): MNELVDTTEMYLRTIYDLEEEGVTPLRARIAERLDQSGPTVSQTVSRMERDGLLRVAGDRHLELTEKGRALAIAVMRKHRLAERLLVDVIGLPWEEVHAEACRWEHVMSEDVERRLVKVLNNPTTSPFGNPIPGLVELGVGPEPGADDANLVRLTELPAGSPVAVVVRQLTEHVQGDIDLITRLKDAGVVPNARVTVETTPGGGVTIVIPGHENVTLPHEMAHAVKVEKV
# ASSAY DETAILS: biochemical
# CONDITION INFO: EMSA, 0.35 µg IdeR, 0.8 picomoles labeled DNA, 200 µM NiSO4, inhibitor 0.4-100 µg/ml; read-out: IC50 (µg/ml) (converted)
Quick note: unit goes after the number.

Solved entries (count: 3):
> print(dat)
                                   molecule  test.result
1  Oc1ccc(/C=N\c2ccccc2/N=C\c2ccc(O)c(O)c2)cc1O      95.6 µM
2  Cc1c2ccccc2nc(C[S+]([O-])c2ccccc2)[n+]1[O-] (stereo not shown)       181 µM
3  NC(Cc1c[nH]c2cc(OCc3ccccc3)ccc12)C(=O)O (stereo not shown)       189 µM

Now take the following molecule into account.
State measured IC50 of the molecule O=C(NN1C(=O)C=C(O)C1=Cc1ccccc1)c1ccccc1 with IdeR (Mycobacterium tuberculosis).
170 µM
